Each recorded value in this set is attributed to PubChem BioAssay (NCATS).

assay summary: Quantitative High-Throughput drug screen in 47 multiple myeloma cell lines against the NCATS MIPE library collection: Karpas25_ECACC cell viability assay (AID 1918968; also: nearly all actives have a fitted effect of over 35% in size)
conditions used: Karpas25 myeloma viability, CellTiter-Glo ATP, 48 h; series mostly up to 45.8 µM
Records with an inconclusive call do not appear. Activity calls are given as the source filed them. Calls follow the shape of the dose curve; as a rule, active = well fitted cell-killing curve with a large enough effect; inconclusive = small, poorly fitted or top-dose-only effect, or effect the other way; inactive = no such curve, though single readings can be large or run the other way.
A correct response names exactly one class from YES for active, NO for inactive

Some entries whose results are on file:
**Q:** Given `COC[C@@H](c1ccc(C(F)(F)F)cc1)N1CCN(C2(C)CCN(C(=O)c3c(C)ncnc3C)CC2)C[C@H]1C` , state the outcome it received in this test.
**A:** YES

**Q:** Item: `O=C1C[C@@H](c2ccc(O)cc2)Oc2cc(O)cc(O)c21`
**A:** NO

**Q:** Then what about the compound `NS(=O)(=O)c1ccc(NC2=CC(=O)c3ccccc3C2=O)cc1` ?
**A:** YES

---
**Q:** Called result for `COc1cc(N2CCC(N3CCN(C)CC3)CC2)ccc1Nc1ncc(Cl)c(Nc2ccccc2S(=O)(=O)C(C)C)n1`
**A:** NO

**Q:** Also `Cc1ccc(C(=O)Nc2cccc(C(F)(F)F)c2)cc1Nc1nc(-c2cccnc2)nc2c1cnn2C` , if possible.
**A:** YES

**Q:** Same read-out for `CCC(=O)NC[C@H](Cc1ccc(OCCc2nc(-c3ccccc3)oc2C)cc1)NC(C)=CC(=O)c1ccc(C(F)(F)F)cc1` ?
**A:** NO

**Q:** Please do the same for `Cc1cnc(C(=O)O)c[n+]1[O-]` as well.
**A:** NO

**Q:** Record: `CCc1ccc(OCc2ccccc2C(=O)Nc2ccc3nc(C)cc(N)c3c2)cc1`
**A:** YES

**Q:** Ok, now `O=C(Nc1ccccc1-c1cn2c(CN3CCNCC3)csc2n1)c1cnc2ccccc2n1`
**A:** YES
